Sourced from PubChem BioAssay

Form field: inhibition of aggregation (one value per entry).
# TEST: reduction of polyQ htt aggregates in cells – imaging, exon1htt(103Q)mCFP cells, high-content imaging, primary screen (AID 483);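 further: compound exposure lasted 3 days before fixation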
# RECORDED CONDITIONS: exon1htt(103Q)mCFP cell line, aggregate imaging, at 2 µM; active compounds read high
Calls of active or inactive are those of the source.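 How the source made its calls: active means visual image review flags a hit and inhibition of aggregation exceeds 20%; inconclusive means visual hit but inhibition at or below 20%; inactive means no hit on visual image review.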
PROPERTY NAME: inhibition of aggregation

> print(dat)
                                    compound              property.name           reported
 1  CC(Sc1n[nH]c(=O)[nH]c1=O)C(=O)OCc1ccccc1 (stereo unspecified)  inhibition of aggregation   10.6% (inactive)
 2  CCOC(=O)C1CCN(C(=O)CN(Cc2ccccc2)S(C)(=O)=O)CC1  inhibition of aggregation  -32.7% (inactive)
 3  Cc1ccccc1NC(=O)C1CCCN(S(=O)(=O)c2cccc3cccnc23)C1 (stereo unspecified)  inhibition of aggregation     21% (inactive)
 4        NC(=O)c1c(NC(=O)Cc2cccs2)sc2c1CCC2  inhibition of aggregation   12.6% (inactive)
 5  COc1ccc(NC(=O)CC2Oc3ccccc3NC2=O)cc1 (stereo unspecified)  inhibition of aggregation   -0.3% (inactive)
 6  O=C(Nc1cc(C(F)(F)F)ccc1Cl)c1cc(C2CC2)on1  inhibition of aggregation   -8.1% (inactive)
 7      Cc1nnc(SC(=O)N2c3ccccc3Sc3ccccc32)s1  inhibition of aggregation     39.8% (active)
 8  CC1=C(C(N)=O)C(c2ccccn2)n2nc(-c3ccccc3Cl)nc2N1 (stereo unspecified)  inhibition of aggregation  -14.7% (inactive)
 9     COc1ccc(NC(=O)c2cnc3n(c2=O)CCS3)cc1OC  inhibition of aggregation    -15% (inactive)
10  Cc1ccc(S(=O)(=O)N2CCN(c3nc(C)nc4sc(C)c(C)c34)CC2)cc1  inhibition of aggregation   -6.6% (inactive)
11  CC12CN3CCN(CC(C3)C1(O)CN1CCCCC1)C2 (stereo unspecified)  inhibition of aggregation  -16.8% (inactive)
